- EXPERIMENTAL_DETAILS: Plasma PK of Tadalafil and Vardenafil after a single oral dose (LC/MS/MS)
- Type: in vivo, mice
- CONDITION_LABEL: mouse, NSG mice, single oral dose 30 mg/kg, 1 hour post dose, read-out: Plasma levels
MEASUREMENT_NAME: concentration at 1 h (µM)
Record the value in µM, omitting the unit from your answer.

// sample CN1CC(=O)N2[C@H](c3ccc4c(c3)OCO4)c3[nH]c4ccccc4c3C[C@@H]2C1=O [Tadalafil] , its concentration at 1 h was 19.8

---

- EXPERIMENTAL_DETAILS: Plasma PK of Tadalafil and Vardenafil after a single oral dose (LC/MS/MS)
- Type: in vivo, mice
- CONDITION_LABEL: mouse, NSG mice, single oral dose 100 mg/kg, 24 hours post dose, read-out: Plasma levels
MEASUREMENT_NAME: concentration at 24 h (nM)
Record the value in nM, omitting the unit from your answer.

// sample CN1CC(=O)N2[C@H](c3ccc4c(c3)OCO4)c3[nH]c4ccccc4c3C[C@@H]2C1=O [Tadalafil] , its concentration at 24 h was 100
